# credit: patent US7488598B2

- ASSAY_INFO: E. coli PNP enzyme activity with substrate MeP-dR
- ASSAY_SETUP: substrate MeP-dR; percent of wild-type activity
# Percent of Control Activity, MeP-dR listing for each entry below

[
  {
    "MOLECULE": "M181E (protein, UniProt P0ABP8 2-239, looked up, variant M181E) Purine nucleoside …: ATPHINAEMGDFADVVLMPGDPLRAKYIAETFLEDAREVNNVRGMLGFTGTYKGRKISVMGHGMGIPSCSIYTKELITDFGVKKIIRVGSCGAVLPHVKLRDVVIGMGACTDSKVNRIRFKDHDFAAIADFDMVRNAVDAAKALGIDARVGNLFSADLFYSPDGEMFDVMEKYGILGVEEEAAGIYGVAAEFGAKALTICTVSDHIRTHEQTTAAERQTTFNDMIKIALESVLLGDKE",
    "RESULT_TYPE": "Percent of Control Activity, MeP-dR",
    "MEASURED_VALUE": "0.04%"
  }
]

State the recorded Percent of Control Activity, MeP-dR for this entry: D205N (protein, UniProt P0ABP8 2-239, looked up, variant D205N) Purine nucleoside …: ATPHINAEMGDFADVVLMPGDPLRAKYIAETFLEDAREVNNVRGMLGFTGTYKGRKISVMGHGMGIPSCSIYTKELITDFGVKKIIRVGSCGAVLPHVKLRDVVIGMGACTDSKVNRIRFKDHDFAAIADFDMVRNAVDAAKALGIDARVGNLFSADLFYSPDGEMFDVMEKYGILGVEMEAAGIYGVAAEFGAKALTICTVSNHIRTHEQTTAAERQTTFNDMIKIALESVLLGDKE 2.2%

For A157F (protein, UniProt P0ABP8 2-239, looked up, variant A157F) Purine nucleoside …: ATPHINAEMGDFADVVLMPGDPLRAKYIAETFLEDAREVNNVRGMLGFTGTYKGRKISVMGHGMGIPSCSIYTKELITDFGVKKIIRVGSCGAVLPHVKLRDVVIGMGACTDSKVNRIRFKDHDFAAIADFDMVRNAVDAAKALGIDARVGNLFSFDLFYSPDGEMFDVMEKYGILGVEMEAAGIYGVAAEFGAKALTICTVSDHIRTHEQTTAAERQTTFNDMIKIALESVLLGDKE , what is its reported Percent of Control Activity, MeP-dR? 1.5%

# get_value(readout='Percent of Control Activity, MeP-dR', item= M181N (protein, UniProt P0ABP8 2-239, looked up, variant M181N) Purine nucleoside …: ATPHINAEMGDFADVVLMPGDPLRAKYIAETFLEDAREVNNVRGMLGFTGTYKGRKISVMGHGMGIPSCSIYTKELITDFGVKKIIRVGSCGAVLPHVKLRDVVIGMGACTDSKVNRIRFKDHDFAAIADFDMVRNAVDAAKALGIDARVGNLFSADLFYSPDGEMFDVMEKYGILGVENEAAGIYGVAAEFGAKALTICTVSDHIRTHEQTTAAERQTTFNDMIKIALESVLLGDKE ) 0.1%

Percent of Control Activity, MeP-dR lookup needed for M181V (protein, UniProt P0ABP8 2-239, looked up, variant M181V) Purine nucleoside …: ATPHINAEMGDFADVVLMPGDPLRAKYIAETFLEDAREVNNVRGMLGFTGTYKGRKISVMGHGMGIPSCSIYTKELITDFGVKKIIRVGSCGAVLPHVKLRDVVIGMGACTDSKVNRIRFKDHDFAAIADFDMVRNAVDAAKALGIDARVGNLFSADLFYSPDGEMFDVMEKYGILGVEVEAAGIYGVAAEFGAKALTICTVSDHIRTHEQTTAAERQTTFNDMIKIALESVLLGDKE , thanks. 0.02%
